Values compiled from ChEMBL document CHEMBL1201862.

# Test system: A549
# Assay method text: NCI tumour cell line growth inhibition, 48 h
Activity calls are given as the source filed them. Rule as the data show it: active = GI50 up to about 1.1 µM and inactive = higher.
Measured parameter: GI50

Please review the entries below; each comes with its answer.
Give a short answer stating reported GI50 for `CO[C@](C(=O)OC[C@H]1[C@@H](COC(C)=O)[C@@H]2O[C@H]1c1cc3c(cc12)OCO3)(c1ccccc1)C(F)(F)F` .
17.5 µM (inactive)

Retrieve GI50 measured for OCCCNCC(O)c1ccc(OCc2ccccc2)c(OCc2ccccc2)c1 (stereo not given) and print it.
11.6 µM (inactive)

For the molecule CC(O)C1CC1(CO)CNc1cc(Cl)nc(N)n1 (stereo not given) , give its measured GI50 value.
> 100 µM (inactive)

Supply measured GI50 of `O=C1C=CC(=O)c2c1ccc1c3ccccc3n(-c3cccc([N+](=O)[O-])c3)c21` in your reply.
> 10 µM (inactive)

***
# return recorded GI50 for entry `COC(=O)c1cc(=O)n(-c2ccc3nn(C)nc3c2)cc1C(=O)OC`
> 100 µM (inactive)

Provide only the value of recorded GI50 for c1ccc2c(c1)cc(C1NCCc3nc[nH]c31)c1ccccc12 (stereo not given)
54.5 µM (inactive)

Fill in GI50 for record `COc1cc2c(cc1OC)C(=O)N(c1ccc(O)cc1)C2=O`
> 100 µM (inactive)

For the molecule COc1ccc(/C(=N/O)c2ccccc2C2=Nc3ccccc3C(NCc3ccccc3)O2)cc1C (stereo not given) , give its measured GI50 value.
49 µM (inactive)

Return GI50 (reported value) for this molecule: `CS(=O)(=O)CSCSSCS(C)(=O)=O`
> 100 µM (inactive)

Provide only the value of recorded GI50 for `O=C(C#Cc1ccccc1)N1CCCCC1`
76.9 µM (inactive)

###

Reported GI50 values for the following compounds.
# Test system: SK-OV-3
# Assay method text: NCI tumour cell line growth inhibition, 48 h
The source made the active and inactive calls. Cut-off read from the data, not from the text of the source: active = GI50 up to about 1.1 µM and inactive = higher.

For orientation, consider the following solved cases.
Specify reported GI50 for the compound shown: `COc1ccc(C(=C(I)c2ccccc2)c2ccc(OC)cc2)cc1`
> 100 µM (inactive)

Name the recorded GI50 of the compound listed here: O=C(O)C(CS)NCc1c2ccccc2[n+]([O-])c2ccccc12 (stereo not given)
> 100 µM (inactive)

More entries:
Identify the reported GI50 for the following entry. `COc1nc(Cl)nc(N[C@H](C)c2c3ccccc3cc3ccccc23)n1`
15.7 µM (inactive)

State, in one line, measured GI50 of `CCCCCCCCCCc1c2nc(c(CCCCCCCCCC)c3ccc([nH]3)c(CCCCCCCCCC)c3nc(c(CCCCCCCCCC)c4ccc1[nH]4)C=C3)C=C2`
> 100 µM (inactive)

Input COc1ccc(/C(=N/O)c2ccccc2C2=Nc3ccccc3C(NCc3ccccc3)O2)cc1C (stereo not given) , output reported GI50.
21.2 µM (inactive)

###

# Tested on: K562
# Assay method text: NCI tumour cell line growth inhibition, 48 h
Activity calls are given as the source filed them. Rule as the data show it: active = GI50 up to about 1.1 µM and inactive = higher.
Use one of these outcomes when replying: active, inactive

Outcome? Clc1ccc(COC(Cn2ccnc2)c2ccc(Cl)cc2Cl)cc1 (stereo not drawn) [ECONAZOLE NITRATE]
inactive

GET /call?item= `COc1cc(-c2cc(O)c3ccccc3n2)cc(OC)c1OC` returns the recorded outcome of this test.
inactive

Dear all, I need the recorded test outcome for COc1cccc(NC(=O)C(=O)C(C(=O)c2ccccc2F)C2OC(=O)c3ccccc32)c1 (stereo not drawn) , thank you.
inactive

Outcome? Cc1ccc2c(c1C)C(=O)C1(Cc3cc4c(cc3C1=O)CCC4)C2 (stereo not drawn)
inactive

Assay outcome for `COCCN(CCNC(=O)c1cccc2c(N)c3cccc(C)c3nc12)CCOC` : what was it?
active

Continuing:
What classification did `CNC(=S)/C(C#N)=C(\N)N1CCCC1` end up with in this test?
inactive

For `NNC(=O)c1nn[nH]c1C(=O)NN` , what call appears in the results of this test?
inactive

Give the logged outcome of this assay for the following molecule: `CC[C@@]1(O)C(=O)OCc2c1cc1n(c2=O)Cc2c-1nc1ccc(N)cc1c2CC[Si](C)(C)C`
active

Record request — test call for `CC1=C2CCCC2=C/C(=N/Nc2ccc([N+](=O)[O-])cc2[N+](=O)[O-])CC1`
inactive

In this assay, the call recorded for `CC/C(=C\c1ccc(OC)cc1)c1ccc(OC)cc1` was what?
inactive
